Molecular target: Ferritin light chain (Equus caballus)
Assay: Confirmation Assay for Identification of Novel General Anesthetics; note: potency is the fitted concentration of half-maximal effect; nearly all actives have a fitted effect of over 40% in size
Conditions: apoferritin 1-aminoanthracene fluorescence displacement
Results filed as inconclusive are left out. The source made the active and inactive calls. Calls come from the whole dose curve; as a rule, active = well fitted inhibition curve with a large enough effect; inconclusive = small, poorly fitted or top-dose-only effect; inactive = flat fitted curve, though single readings scatter.
property measured: Potency

> print(dat)
                                   compound  property.measured        test.value
1  CC1CCCCN1S(=O)(=O)Cc1ccccc1Cl (stereo not drawn)            Potency  14.1 µM (active)

Return Potency measured with Ferritin light chain (Equus caballus) given this compound: Nc1ccc(C23CC4CC(CC(C4)C2)C3)cc1 7.08 µM (active)

Return Potency measured with Ferritin light chain (Equus caballus) given this compound: CCCNC(=O)OCCC12CC3CC(CC(C3)C1)C2 7.08 µM (active)
